# experimental-system: Human recombinant MMP-1 (Homo sapiens, UniProt P03956)
# Sequence (P03956 100-469): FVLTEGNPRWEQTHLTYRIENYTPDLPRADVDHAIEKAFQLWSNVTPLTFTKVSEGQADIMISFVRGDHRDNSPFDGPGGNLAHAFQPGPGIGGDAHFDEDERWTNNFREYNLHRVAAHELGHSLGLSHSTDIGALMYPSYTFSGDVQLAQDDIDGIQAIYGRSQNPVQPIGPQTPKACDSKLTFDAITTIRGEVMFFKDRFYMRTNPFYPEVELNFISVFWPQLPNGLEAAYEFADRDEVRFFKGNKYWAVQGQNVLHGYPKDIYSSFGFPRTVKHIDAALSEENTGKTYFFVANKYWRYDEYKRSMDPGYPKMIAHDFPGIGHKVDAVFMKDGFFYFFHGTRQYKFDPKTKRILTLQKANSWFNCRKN
# assay-remarks: In vitro MMP inhibition analysis (fluorogenic peptide substrate), MMP-1
# test-conditions: human recombinant enzyme; 4 μM substrate (A); apparent Ki without substrate correction
pKi: −log10 of the molar value.
Reported pKi values follow for various compounds

Recorded pKi, per entry:
structure	pKi
CCN(CC)C(=O)c1ccc(-c2ccc(S(=O)(=O)C3(C(=O)NO)CCOCC3)cn2)cc1	< 5.00
O=C(NO)C1(S(=O)(=O)c2ccc(-c3ccc(CCC(F)(F)F)cc3)nc2)CCOCC1	< 5.00
CC(C)CN(C)C(=O)Cc1ccc(-c2ccc(S(=O)(=O)C3(C(=O)NO)CCOCC3)cn2)cc1	< 5.00
O=C(NO)C1(S(=O)(=O)c2ccc(-c3ccc(CCC(F)(F)C(F)(F)F)cc3)nc2)CCOCC1	< 5.00
O=C(NO)C1(S(=O)(=O)c2ccc(-c3ccc(OCC(F)(F)F)cc3)nc2)CCOCC1	5.36

QUERY: What pKi value was documented for this compound, O=C(NO)C1(S(=O)(=O)c2ccc(-c3ccc(C(F)(F)F)cn3)s2)CCOCC1 ?
RESULT: < 5.00

QUERY: # iterate: O=C(NO)C1(S(=O)(=O)c2ccc3nc(-c4ccc(F)cc4F)sc3c2)CCOCC1
RESULT: < 5.00

QUERY: # iterate: CCCc1ccc(-c2nc3ccc(S(=O)(=O)C4(C(=O)NO)CCOCC4)cc3s2)cc1
RESULT: < 5.00

QUERY: # iterate: O=C(NO)C1(S(=O)(=O)c2ccc(-c3ccc(CCC(F)(F)C(F)(F)F)cn3)s2)CCOCC1
RESULT: < 5.00

QUERY: # iterate: O=C(NO)C1(S(=O)(=O)c2ccc3nc(-c4ccc(OC(F)(F)F)cc4)sc3c2)CCOCC1
RESULT: 5.19

QUERY: # iterate: CCOc1ccc(-c2nc3ccc(S(=O)(=O)C4(C(=O)NO)CCOCC4)cc3s2)cc1
RESULT: < 6.51

QUERY: # iterate: O=C(NO)C1(S(=O)(=O)c2ccc3nc(-c4ccc(SC(F)(F)F)cc4)sc3c2)CCOCC1
RESULT: < 5.00

QUERY: # iterate: CCCCNC(=O)c1ccc(-c2ccc(S(=O)(=O)C3(C(=O)NO)CCOCC3)cn2)cc1
RESULT: 5.38

QUERY: # iterate: O=C(NO)C1(S(=O)(=O)c2ccc3nc(-n4cnc(-c5ccccc5)c4)sc3c2)CCOCC1
RESULT: < 5.00

QUERY: # iterate: O=C(NO)C1(S(=O)(=O)c2ccc(-c3ccc(OC(F)(F)C(F)F)cc3)s2)CCOCC1
RESULT: 5.95

QUERY: # iterate: CCCCOc1ccc(-c2ccc(S(=O)(=O)C3(C(=O)NO)CCOCC3)s2)cc1
RESULT: < 5.90

---

# experimental-system: Human recombinant MMP-2 (Homo sapiens)
# Sequence (P08253 110-660): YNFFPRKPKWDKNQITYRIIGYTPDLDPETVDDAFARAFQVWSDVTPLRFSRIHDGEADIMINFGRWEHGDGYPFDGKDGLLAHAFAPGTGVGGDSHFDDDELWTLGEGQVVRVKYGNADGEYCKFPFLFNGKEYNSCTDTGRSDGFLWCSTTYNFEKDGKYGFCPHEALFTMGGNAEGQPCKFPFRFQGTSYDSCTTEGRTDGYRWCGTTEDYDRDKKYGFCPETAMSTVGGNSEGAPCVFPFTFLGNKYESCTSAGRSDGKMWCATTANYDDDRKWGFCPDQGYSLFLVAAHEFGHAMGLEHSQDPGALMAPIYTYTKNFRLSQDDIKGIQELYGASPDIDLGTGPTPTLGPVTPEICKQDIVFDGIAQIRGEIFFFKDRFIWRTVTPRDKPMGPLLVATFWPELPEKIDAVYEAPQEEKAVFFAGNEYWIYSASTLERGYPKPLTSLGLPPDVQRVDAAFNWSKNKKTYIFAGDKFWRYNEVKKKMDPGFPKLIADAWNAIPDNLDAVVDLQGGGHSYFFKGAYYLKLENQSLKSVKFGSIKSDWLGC
# assay-remarks: In vitro MMP inhibition analysis (fluorogenic peptide substrate), MMP-2
# test-conditions: human recombinant enzyme; 4 μM substrate (A); apparent Ki without substrate correction
Classification by Ki | ranges: A: < 0.03 µM; B: ≥ 0.03 µM and < 0.4 µM; C: ≥ 0.4 µM

Take a look at these entries with their results.
compound	class
CCCCN(C)C(=O)Cc1ccc(-c2ccc(S(=O)(=O)C3(C(=O)NO)CCOCC3)cn2)cc1 [Example 74]	B
CCCCNC(=O)c1ccc(-c2ccc(S(=O)(=O)C3(C(=O)NO)CCOCC3)cn2)cc1 [Example 76]	A
CCCCc1ccc(C(=O)C2CCN(c3ccc(S(=O)(=O)C4(C(=O)NO)CCOCC4)cn3)CC2)s1 [Example 70]	C
CC(C)CN(C)C(=O)c1ccc(-c2ccc(S(=O)(=O)C3(C(=O)NO)CCOCC3)cn2)cc1 [Example 82]	C
COCCN1CCC(C(=O)NO)(S(=O)(=O)c2ccc3nc(-c4ccc(OC(F)(F)F)cc4)sc3c2)CC1 [Example 63]	A

QUERY: Kindly state the category for this compound: O=C(NO)C1(S(=O)(=O)c2ccc(-c3ccc(OC(F)(F)C(F)F)cc3)nc2)CCOCC1 [Example 47]
RESULT: A

QUERY: # iterate: O=C(NO)C1(S(=O)(=O)c2ccc3nc(-c4ccc(Cl)s4)sc3c2)CCOCC1 [Example 59]
RESULT: A

QUERY: # iterate: CCN(CC)C(=O)c1ccc(-c2ccc(S(=O)(=O)C3(C(=O)NO)CCOCC3)cn2)cc1 [Example 79]
RESULT: C

QUERY: # iterate: CC(C)Cc1ncc(-c2nc3ccc(S(=O)(=O)C4(C(=O)NO)CCOCC4)cc3s2)s1 [Example 54]
RESULT: B

QUERY: # iterate: CCCCNC(=O)Cc1ccc(-c2ccc(S(=O)(=O)C3(C(=O)NO)CCOCC3)cn2)cc1 [Example 73]
RESULT: B

---

# experimental-system: Human recombinant MMP-2 (Homo sapiens)
# assay-remarks: In vitro MMP inhibition analysis (fluorogenic peptide substrate), MMP-2
# test-conditions: human recombinant enzyme; 4 μM substrate (A); apparent Ki without substrate correction
experimental-readout: log10 of Ki (log10 of the value in nM)
Field: value | Transform: log10 | Quantity: Ki | Unit: nM

molecule	log10 of Ki
CC(C)CN(C)C(=O)Cc1ccc(-c2ccc(S(=O)(=O)C3(C(=O)NO)CCOCC3)cn2)cc1 [Example 71]	2.74

QUERY: Field: log10 of Ki (Human recombinant MMP-2 (Homo sapiens)). Entry: CCOc1ccc(-c2nc3ccc(S(=O)(=O)C4(C(=O)NO)CCOCC4)cc3s2)cc1 [Example 66]
RESULT: 0.34

QUERY: # iterate: O=C(NO)C1(S(=O)(=O)c2ccc3nc(-n4cnc(-c5ccccc5)c4)sc3c2)CCOCC1 [Example 64]
RESULT: 2.18

QUERY: # iterate: O=C(NO)C1(S(=O)(=O)c2ccc3nc(-c4ccc(OC(F)(F)F)cc4)sc3c2)CCOCC1 [Example 51]
RESULT: 0.32

QUERY: # iterate: O=C(c1ccc(-c2ccc(S(=O)(=O)C3(C(=O)NO)CCOCC3)cn2)cc1)N1CCCCC1 [Example 77]
RESULT: 3.70

QUERY: # iterate: CN(C(=O)c1ccc(-c2ccc(S(=O)(=O)C3(C(=O)NO)CCOCC3)cn2)cc1)c1ccc(OC(F)(F)F)cc1 [Example 81]
RESULT: 3.31

---

# experimental-system: Human recombinant MMP-14 (Homo sapiens, UniProt P50281)
# Construct: The catalytic domain enzyme was expressed in E. Coli inclusion bodies
# assay-remarks: In vitro MMP inhibition analysis (fluorogenic peptide substrate), MMP-14
# test-conditions: human recombinant catalytic domain; 4 μM substrate (A); apparent Ki without substrate correction
Reported log10(Ki) values follow for various compounds
Field: value | Transform: log10 | Quantity: Ki | Unit: µM

Recorded log10(Ki), per entry:
compound	assay-value
O=C(NO)C1(S(=O)(=O)c2ccc3nc(-c4ccc(C(F)(F)F)cc4)sc3c2)CCOCC1 [Example 57]	0.33
CCCCCc1ccc(-c2ccc(S(=O)(=O)C3(C(=O)NO)CCOCC3)cn2)cc1 [Example 45]	0.54
O=C(NO)C1(S(=O)(=O)c2ccc(-c3ccc(CCC(F)(F)C(F)(F)F)cc3)nc2)CCOCC1 [Example 69]	0.71
O=C(NO)C1(S(=O)(=O)c2ccc(-c3ccc(OCC(F)(F)F)cc3)nc2)CCOCC1 [Example 46]	-0.07
O=C(NO)C1(S(=O)(=O)c2ccc3nc(-c4ccc(Cl)s4)sc3c2)CCOCC1 [Example 59]	-0.03
O=C(NO)C1(S(=O)(=O)c2ccc3nc(-c4ccsc4)sc3c2)CCOCC1 [Example 62]	-0.45
O=C(NO)C1(S(=O)(=O)c2ccc(-c3ccc(CCC(F)(F)F)cc3)nc2)CCOCC1 [Example 68]	0.39
O=C(NO)C1(S(=O)(=O)c2ccc3nc(-c4ccc(F)c(F)c4)sc3c2)CCOCC1 [Example 60]	-0.15
O=C(NO)C1(S(=O)(=O)c2ccc(-c3ccc(C(F)(F)F)cn3)s2)CCOCC1 [Example 50]	0.45
COCCN1CCC(C(=O)NO)(S(=O)(=O)c2ccc3nc(-c4ccc(OC(F)(F)F)cc4)sc3c2)CC1 [Example 63]	0.63

QUERY: What log10(Ki) value was documented for this compound, O=C(NO)C1(S(=O)(=O)c2ccc(-c3ccc(OC(F)(F)F)cc3)nc2)CCOCC1 [Example 84] ?
RESULT: -0.17

QUERY: # iterate: O=C(NO)C1(S(=O)(=O)c2ccc3nc(-c4ccc5c(c4)OCO5)sc3c2)CCOCC1 [Example 65]
RESULT: -0.16

QUERY: # iterate: O=C(NO)C1(S(=O)(=O)c2ccc(-c3ccc(OC(F)(F)C(F)F)cc3)s2)CCOCC1 [Example 44]
RESULT: -0.37

QUERY: # iterate: O=C(NO)C1(S(=O)(=O)c2ccc3nc(-c4ccc(SC(F)(F)F)cc4)sc3c2)CCOCC1 [Example 67]
RESULT: 0.56

QUERY: # iterate: O=C(NO)C1(S(=O)(=O)c2ccc3c(c2)sc2nc(-c4ccccc4)cn23)CCOCC1 [Example 83]
RESULT: 0.50
